Where these numbers come from: ChEMBL document CHEMBL3421585

# System: A549
# Experiment Description: Cytotoxicity against human A549 cells assessed as cell viability after 4 hrs
# Format: cell-based
# Assay Conditions: a549, 4 h

| Smiles Repr | Activity |
| --- | --- |
| CC(C)Cn1c(N)c(C#N)c2cc(Oc3ccc(NC(=O)CN)cc3)ccc21 | Toxic |
| N#Cc1cn(-c2ccccc2)c2ccc(Oc3ccc(NC(=O)[C@@H]4CCCN4)cc3)cc12 | Toxic |
| Cn1cc(-c2cn(C)c3ccc(Oc4ccc(NC(=O)[C@@H]5CCCN5)cc4)cc23)cn1 | Non-toxic |
| CCn1cc(C#N)c2cc(Oc3ccc(NC(=O)[C@@H]4CCCN4)cc3)ccc21 | Non-toxic |
| N#Cc1cn(Cc2ccccc2)c2ccc(Oc3ccc(NC(=O)[C@@H]4CCCN4)cc3)cc12 | Toxic |
